- testSystem: PI3Kα[WT]/[E542K]/[E545K]/[H1047R]/PI3Kβ/γ/δ
- experimentNotes: PI3K enzyme activity assay (ADP-Glo)
- measurementParameters: PI3K kinase reaction, isoform not given
measure: IC50

Worked examples follow.
{"compound": "Cc1cc([C@@H](C)Nc2ccsc2C(=O)O)c2nc(-c3ccc(F)cn3)n(C)c(=O)c2c1", "IC50": "< 1 µM"}
{"compound": "Cc1cc([C@@H](C)Nc2cccc(F)c2C(=O)O)c2nc(-c3ccc(F)cc3)n(C)c(=O)c2c1", "IC50": "< 1 µM"}
{"compound": "C[C@@H](Nc1ccc(Cl)nc1C(=O)O)c1cc(F)cc2c(=O)n(C)c(-c3ncc(Cl)cn3)nc12", "IC50": "< 1 µM"}
{"compound": "Cc1cc([C@@H](C)Nc2cccc(F)c2C(=O)O)c2nc(-c3ccc(C(F)(F)F)cn3)n(C)c(=O)c2c1", "IC50": "1 to 5 µM"}
{"compound": "Cc1cc([C@@H](C)Nc2ccccc2C(=O)O)c2nc(-c3ccc(F)cc3)n(C)c(=O)c2c1", "IC50": "< 1 µM"}

Identify the reported IC50 for the following entry. Cc1cc([C@@H](C)NC2CCC(=O)NC2=O)c2oc(-c3ccc(F)cc3F)cc(=O)c2c1 (stereo partly drawn) > 5 µM

For the compound `Cc1cc([C@@H](C)Nc2ccccc2C(=O)O)c2nc(-c3cc(F)ccc3F)n(C)c(=O)c2c1` , give its reported IC50. < 1 µM

Name the recorded IC50 of the item `C[C@@H](Nc1ccc(Cl)nc1C(=O)O)c1cc(F)cc2c(=O)n(C)c(-c3ccc(F)cn3)nc12` in your answer. < 1 µM

Please look at this compound and report its IC50: `Cc1cc([C@@H](C)Nc2ccc[nH]c2=O)c2oc(-c3ccc(F)cc3F)cc(=O)c2c1` < 1 µM

Assign IC50 to the following record: `Cc1cc([C@@H](C)Nc2ccccc2C(=O)O)c2oc(-c3ccc4c(c3)OC(F)(F)O4)cc(=O)c2c1` < 1 µM

Answer with reported IC50 of `Cc1cc([C@@H](C)Nc2ccccc2C(=O)O)c2nc(-c3c(F)cccc3F)n(C)c(=O)c2c1` < 1 µM

---

Below, each entry is listed alongside its reported pIC50.
- System: MCF-10A cells
- experimentNotes: Inhibitory effects on the proliferation of MCF-10A cells (CCK8)
- Type: cell-based
- measurementParameters: 6 days
pIC50: −log10 of the molar value.

{"compound": "Cc1cc([C@@H](C)Nc2ccccc2C(O)C(F)(F)F)c2oc(-c3ccc(F)cc3)cc(=O)c2c1 (single isomer, unassigned)", "pIC50": "< 5.30"}

Please report pIC50 for the following compound: `Cc1cc([C@@H](C)Nc2ccccc2C(=O)O)c2[nH]c(-c3ccc(F)cn3)[n+](C)c(=O)c2c1` < 5.30

---

- testSystem: PI3Kα[WT]/[E542K]/[E545K]/[H1047R]/PI3Kβ/γ/δ
- experimentNotes: PI3K enzyme activity assay (ADP-Glo)
- measurementParameters: PI3K kinase reaction, isoform not given
pIC50: −log10 of the molar value.
Overview of reported pIC50 across a group of compounds:

{"compound": "Cc1cc([C@@H](C)Nc2cccc(F)c2C(=O)O)c2nc(-c3ccc(F)cn3)n(C)c(=O)c2c1 [Compound 70]", "testSystem": "PI3Kα[WT]/[E542K]/[E545K]/[H1047R]/PI3Kβ/γ/δ", "pIC50": "> 6.00"}
{"compound": "Cc1cc([C@@H](C)Nc2cccc3c2C(=O)NC3=O)c2oc(-c3ccc(F)cc3F)cc(=O)c2c1 [Compound 55]", "testSystem": "PI3Kα[WT]/[E542K]/[E545K]/[H1047R]/PI3Kβ/γ/δ", "pIC50": "5.30 to 6.00"}

Using the record for Cc1cc([C@@H](C)Nc2ccccc2C(=O)O)c2nc(N3CCC(C)(C)CC3)n(C)c(=O)c2c1 [Compound 6] , state its measured pIC50. > 6.00

Find the measured pIC50 of Cc1cc([C@@H](C)Nc2ccc(Cl)nc2C(=O)O)c2nc(-c3ncc(Cl)cn3)n(C)c(=O)c2c1 [Compound 96] and report it. > 6.00

Output measured pIC50 for this item: [2H]C([2H])([2H])NC(=O)c1ncccc1N[C@H](C)c1cc(C)cc2c(=O)cc(-c3ccc(F)cc3F)oc12 [Compound 48] 5.30 to 6.00

Identify measured pIC50 associated with Cc1cc([C@@H](C)N[S@+]([O-])C(C)(C)C)c2nc(N3CCC(C)(C)CC3)n(C)c(=O)c2c1 [Compound 5] 5.30 to 6.00

Query pIC50 for Cc1cc([C@@H](C)Nc2ccccc2NS(C)(=O)=O)c2oc(-c3ccc(F)cc3F)cc(=O)c2c1 [Compound 28] 5.30 to 6.00

Return the recorded pIC50 value; entry: Cc1cc([C@@H](C)Nc2ccc(Cl)nc2C(=O)O)c2nc(-c3ccc(F)cc3F)n(C)c(=O)c2c1 [Compound 44] > 6.00

Give pIC50 for the following compound: Cc1cc([C@@H](C)Nc2ccccc2S(N)(=O)=O)c2oc(-c3ccc(F)cc3F)cc(=O)c2c1 [Compound 27] < 5.30

All figures here come from patent US20260015341A1.
